experiment_summary: Plasma and tissue distribution in SD rats
Type: in vivo
setup_conditions: male SD rat, PO 10 mg/kg, Lung

[
  {
    "smiles_entry": "C[C@@H](c1ccc(Nc2cc(Nc3ncccc3S(C)(=O)=O)ncn2)nc1)N1CC2(COC2)C1",
    "Cmax / ng/g": 1960
  }
]

---

experiment_summary: Plasma and tissue distribution in SD rats
Assay type: in vivo
setup_conditions: female, SD, rat, bladder, po, 10 mg/kg, female SD rat, PO 10 mg/kg, Bladder; Tissue AUC0-last/Plasma AUC0-last; read-out: AUC Ratio
measure_name: Kp

[
  {
    "molecule": "C[C@@H](c1ccc(Nc2cc(Nc3ncccc3S(C)(=O)=O)ncn2)nc1)N1CC2(COC2)C1 [Compound 1]",
    "readout_value": 5.12
  }
]

---

experiment_summary: Plasma and tissue distribution in SD rats
Format: in vivo
setup_conditions: male, SD, rat, liver / plasma, po, 10 mg/kg, male SD rat, PO 10 mg/kg, Liver; Tissue AUC0-last/Plasma AUC0-last; read-out: AUC Ratio

[
  {
    "smiles_entry": "C[C@@H](c1ccc(Nc2cc(Nc3ncccc3S(C)(=O)=O)ncn2)nc1)N1CC2(COC2)C1",
    "Kp": 7.5
  }
]

---

experiment_summary: Plasma and tissue distribution in SD rats
Type: in vivo
setup_conditions: female, small intestine; F SD rat, S. Intestine

[
  {
    "smiles_entry": "C[C@@H](c1ccc(Nc2cc(Nc3ncc(F)cc3S(C)(=O)=O)ncn2)nc1)N1CC2(COC2)C1",
    "Cmax": "24800 ng/mL"
  }
]

---

experiment_summary: Plasma and tissue distribution in SD rats
Format: in vivo
setup_conditions: male SD rat, PO 10 mg/kg, Small intestine
measure_name: Tmax (min)

[
  {
    "molecule": "C[C@@H](c1ccc(Nc2cc(Nc3ncccc3S(C)(=O)=O)ncn2)nc1)N1CC2(COC2)C1 [Compound 1]",
    "unit_name": "min",
    "readout_value": 30
  }
]

---

experiment_summary: Plasma and tissue distribution in SD rats
Type: in vivo
setup_conditions: male, Sprague-Dawley, rat, heart, po, 10 mg/kg, male SD rat, PO 10 mg/kg, Heart; Tissue AUC0-last/Plasma AUC0-last; read-out: AUC Ratio
Method: The following Example describes the methods and data used to evaluate the tissue distribution of TYK2 inhibitors following the administration of either compound 1 or compound 2. Thirty (30, 15/sex) SD rats supplied by Beijing Vital River Laboratory Animal Technology Co., Ltd. were used in this study. […] The room (s) was controlled and monitored for relative humidity (targeted mean range 40% to 70%) and temperature (targeted mean range 20° C. to 26° C.) with 15 or above air changes/hour. […]
measure_name: Kp

[
  {
    "molecule": "C[C@@H](c1ccc(Nc2cc(Nc3ncccc3S(C)(=O)=O)ncn2)nc1)N1CC2(COC2)C1 [Compound 1]",
    "readout_value": 1.11
  }
]

---

experiment_summary: Plasma and tissue distribution in SD rats
Format: in vivo
setup_conditions: female, Sprague-Dawley (SD); F SD rat, Bone Marrow
Experimental: The following Example describes the methods and data used to evaluate the tissue distribution of TYK2 inhibitors following the administration of either compound 1 or compound 2. Thirty (30, 15/sex) SD rats supplied by Beijing Vital River Laboratory Animal Technology Co., Ltd. were used in this study. […] The room (s) was controlled and monitored for relative humidity (targeted mean range 40% to 70%) and temperature (targeted mean range 20° C. to 26° C.) with 15 or above air changes/hour. […]

[
  {
    "compound": "C[C@@H](c1ccc(Nc2cc(Nc3ncc(F)cc3S(C)(=O)=O)ncn2)nc1)N1CC2(COC2)C1 [Compound 2]",
    "Tmax / min": 30
  }
]

---

experiment_summary: Plasma and tissue distribution in SD rats
Assay type: in vivo
setup_conditions: female, small intestine; F SD rat, S. Intestine

[
  {
    "molecule": "C[C@@H](c1ccc(Nc2cc(Nc3ncc(F)cc3S(C)(=O)=O)ncn2)nc1)N1CC2(COC2)C1 [Compound 2]",
    "Tmax (min)": 30
  }
]

---

target: TYK2-JH2 (Homo sapiens, UniProt P29597)
Construct: TYK JH2 enzyme mix (ChemPartner: CP20210818A-BV); purchased ChemPartner CP20210818A-BV
Sequence (P29597 589-875 limits assumed): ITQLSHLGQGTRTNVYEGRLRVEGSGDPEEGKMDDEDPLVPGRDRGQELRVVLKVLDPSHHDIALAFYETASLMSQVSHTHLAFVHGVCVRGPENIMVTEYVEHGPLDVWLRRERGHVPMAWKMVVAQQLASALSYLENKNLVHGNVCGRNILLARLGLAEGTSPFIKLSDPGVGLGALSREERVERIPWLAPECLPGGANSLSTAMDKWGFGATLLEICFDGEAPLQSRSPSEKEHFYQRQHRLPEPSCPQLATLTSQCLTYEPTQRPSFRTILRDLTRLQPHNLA
experiment_summary: TYK2-JH2 HTRF binding assay (ligand efficiency)
setup_conditions: calculated from binding-assay IC50 (Equation 1)
Text: The following example describes the TYK2-JH2 HTRF binding assay used to determine the ligand efficiency of the TYK2 inhibitors. To calculate ligand efficiency, Equation 1 is applied: […] in which IC50 comes from the binding assay used to determine compound potency. […]
measure_name: Ligand Efficiency

[
  {
    "compound": "Cc1cc(Nc2cc(Nc3ncccc3S(C)(=O)=O)ncn2)ncc1NC1(C)COC1",
    "readout_value": "††† (†††: >0.39)"
  },
  {
    "compound": "CC(c1ccc(Nc2cc(Nc3ncccc3S(C)(=O)=O)ncn2)nc1)N1CC(F)C1 (stereo not drawn)",
    "readout_value": "††† (†††: >0.39)"
  },
  {
    "compound": "Cc1ccnc(Nc2cc(Nc3ccccc3C(N)=O)ncn2)c1",
    "readout_value": "††† (†††: >0.39)"
  },
  {
    "compound": "C[C@H]1CN(C)CCN1c1ccc(Nc2cc(Nc3ncccc3S(C)(=O)=O)ncn2)nc1",
    "readout_value": "††† (†††: >0.39)"
  },
  {
    "compound": "CS(=O)(=O)c1cccnc1Nc1cc(Nc2ccc(N3CCC4(CCO4)CC3)cn2)ncn1",
    "readout_value": "†† (††: 0.37-0.39)"
  },
  {
    "compound": "Cc1cccnc1Nc1cc(Nc2ccccc2C(N)=O)ncn1",
    "readout_value": "††† (†††: >0.39)"
  },
  {
    "compound": "CS(=O)(=O)c1ccccc1Nc1cc(Nc2ccc(C(=O)NC3COC3)cn2)ncn1",
    "readout_value": "†† (††: 0.37-0.39)"
  },
  {
    "compound": "Cc1cncc(Nc2cc(Nc3ccccc3C(N)=O)ncn2)n1",
    "readout_value": "††† (†††: >0.39)"
  },
  {
    "compound": "CS(=O)(=O)c1cccnc1Nc1cc(Nc2ccc(C(=O)NC3CC(F)(F)C3)cn2)ncn1",
    "readout_value": "††† (†††: >0.39)"
  }
]

---

experiment_summary: Plasma and tissue distribution in SD rats
Type: in vivo
setup_conditions: ovary and uterus; female SD rat, PO 10 mg/kg, Ovary & Uterus

[
  {
    "smiles_entry": "C[C@@H](c1ccc(Nc2cc(Nc3ncccc3S(C)(=O)=O)ncn2)nc1)N1CC2(COC2)C1",
    "unit_name": "min",
    "Tmax": 30
  }
]

---

experiment_summary: Plasma and tissue distribution in SD rats
Format: in vivo
setup_conditions: male SD rat, PO 10 mg/kg, Spleen
Description: The following Example describes the methods and data used to evaluate the tissue distribution of TYK2 inhibitors following the administration of either compound 1 or compound 2. Thirty (30, 15/sex) SD rats supplied by Beijing Vital River Laboratory Animal Technology Co., Ltd. were used in this study. […] The room (s) was controlled and monitored for relative humidity (targeted mean range 40% to 70%) and temperature (targeted mean range 20° C. to 26° C.) with 15 or above air changes/hour. […]
measure_name: half-life (min)

[
  {
    "smiles_entry": "C[C@@H](c1ccc(Nc2cc(Nc3ncccc3S(C)(=O)=O)ncn2)nc1)N1CC2(COC2)C1",
    "measure_name": "half-life",
    "unit_name": "min",
    "readout_value": 295
  }
]

---

experiment_summary: Plasma and tissue distribution in SD rats
Format: in vivo
setup_conditions: male, Sprague-Dawley (SD); M SD rat, Kidney

[
  {
    "smiles_entry": "C[C@@H](c1ccc(Nc2cc(Nc3ncc(F)cc3S(C)(=O)=O)ncn2)nc1)N1CC2(COC2)C1",
    "Tmax": "30 min"
  }
]

---

Tested on: IFNα/pSTAT5
experiment_summary: Whole blood potency (IFNα/pSTAT5), human
Type: cell-based
setup_conditions: CD4+ T cells, read-out: Cellular Whole Blood Potency IC50 (IFNα/pSTAT5), Human
pIC50: −log10 of the molar value.
measure_name: pIC50

[
  {
    "smiles_entry": "C[C@@H](c1ccc(Nc2cc(Nc3ncc(F)cc3S(C)(=O)=O)ncn2)nc1)N1CC2(COC2)C1",
    "target": "IFNα/pSTAT5",
    "readout_value": 7.80
  },
  {
    "smiles_entry": "C[C@@H](c1ccc(Nc2cc(Nc3ncccc3S(C)(=O)=O)ncn2)nc1)N1CC2(COC2)C1",
    "target": "IFNα/pSTAT5",
    "readout_value": 7.54
  }
]

---

experiment_summary: Plasma and tissue distribution in SD rats
Type: in vivo
setup_conditions: Sprague-Dawley; male SD rat, PO 10 mg/kg, Fat
measure_name: half-life

[
  {
    "smiles_entry": "C[C@@H](c1ccc(Nc2cc(Nc3ncccc3S(C)(=O)=O)ncn2)nc1)N1CC2(COC2)C1",
    "readout_value": "3.08 h"
  }
]
